# System: rice (Oryza sativa var. Nihonbare)
# Assay protocol: Growth inhibition (phytotoxicity) of transplanted rice by compound A2 with or without compound D, application under submerged condition, visual rating 7 and 21 days after application
# Format: in vivo
# Condition summary: Compound A2 60 g/ha + Compound D 600 g/ha, 7 days after application, applied 5 days after implantation
Property label: Growth inhibition rate (%) (average) 7 days

> print(dat)
                                   compound  measurement.unit  assay.result
1  Cc1ccc(NC(=O)NC(C)(C)c2ccccc2)cc1 [Compound (D1.1), 1-(1-methyl-1-phenylethyl)-3-p-tolylurea]                 %             2
2  COc1cccc(N(C)C(=S)Oc2cccc(C(C)(C)C)c2)n1 [Compound (D2.3)]                 %             3
3  CCSC(=O)N1CCCCCC1 [Compound (D2.2), S-ethyl azepane-1-carbothioate]                 %             7
4    CC(C)(SC(=O)N1CCCCC1)c1ccccc1 [(D2.1)]                 %             5

###

# Tested on: Japanese bulrush (Scirpus juncoides)
# Assay protocol: Growth inhibition of Japanese bulrush in paddy soil pots, application under submerged condition, visual rating and Colby expected value
# Type: in vivo
# Condition summary: 1.5 g/a; 2 leaf stage; 19 days after application; Test Example 34
# Source text: When the herbicidal activity in a case where two active ingredients are combined, is larger than the simple sum of the respective herbicidal activities of the two active ingredients (the expected activity), it is called a synergistic effect. The activity expected by the combination of two active ingredients can be calculated as follows (Colby S. R., “Weed”, vol. 15, p. 20-22, 1967). E=p+q−(p×q÷100) where p: growth inhibition rate when treated with x (g/a) of herbicide X, […]
Property label: Growth inhibition rate (%) Observed

> print(dat)
                                   compound                       property.label  assay.result
1                  CCOC(=O)COc1ccc(Cl)cc1Cl  Growth inhibition rate (%) Observed            20
2  COCC(=O)OC(c1ncccc1S(=O)(=O)NC(=O)Nc1nc(OC)cc(OC)n1)C(C)F (stereo not shown)  Growth inhibition rate (%) Observed            87
3                   CCOC(=O)COc1ccc(Cl)cc1C  Growth inhibition rate (%) Observed            20
4                 CCOC(=O)CCCOc1ccc(Cl)cc1C  Growth inhibition rate (%) Observed            20

###

Here, each record is paired with measured Growth inhibition rate (%) (average) 21 days data.
# System: rice (Oryza sativa var. Nihonbare)
# Assay protocol: Growth inhibition (phytotoxicity) of transplanted rice by compound A2 with or without compound D, application under submerged condition, visual rating 7 and 21 days after application
# Format: in vivo
# Condition summary: Compound A2 60 g/ha + Compound D 600 g/ha, 21 days after application, applied 5 days after implantation
Property label: Growth inhibition rate (%) (average) 21 days

> print(dat)
                                   compound  measurement.unit  assay.result
1  Cc1ccc(NC(=O)NC(C)(C)c2ccccc2)cc1 [Compound (D1.1), 1-(1-methyl-1-phenylethyl)-3-p-tolylurea]                 %            10
2  COc1cccc(N(C)C(=S)Oc2cccc(C(C)(C)C)c2)n1 [Compound (D2.3)]                 %             5
3  CCSC(=O)N1CCCCCC1 [Compound (D2.2), S-ethyl azepane-1-carbothioate]                 %            17
4    CC(C)(SC(=O)N1CCCCC1)c1ccccc1 [(D2.1)]                 %            10
